Biological target: recombinant pentameric gH complex (Towne strain) (human cytomegalovirus, Towne strain) (UniProt P17176)
Sequence (P17176 30-715, one chain of several): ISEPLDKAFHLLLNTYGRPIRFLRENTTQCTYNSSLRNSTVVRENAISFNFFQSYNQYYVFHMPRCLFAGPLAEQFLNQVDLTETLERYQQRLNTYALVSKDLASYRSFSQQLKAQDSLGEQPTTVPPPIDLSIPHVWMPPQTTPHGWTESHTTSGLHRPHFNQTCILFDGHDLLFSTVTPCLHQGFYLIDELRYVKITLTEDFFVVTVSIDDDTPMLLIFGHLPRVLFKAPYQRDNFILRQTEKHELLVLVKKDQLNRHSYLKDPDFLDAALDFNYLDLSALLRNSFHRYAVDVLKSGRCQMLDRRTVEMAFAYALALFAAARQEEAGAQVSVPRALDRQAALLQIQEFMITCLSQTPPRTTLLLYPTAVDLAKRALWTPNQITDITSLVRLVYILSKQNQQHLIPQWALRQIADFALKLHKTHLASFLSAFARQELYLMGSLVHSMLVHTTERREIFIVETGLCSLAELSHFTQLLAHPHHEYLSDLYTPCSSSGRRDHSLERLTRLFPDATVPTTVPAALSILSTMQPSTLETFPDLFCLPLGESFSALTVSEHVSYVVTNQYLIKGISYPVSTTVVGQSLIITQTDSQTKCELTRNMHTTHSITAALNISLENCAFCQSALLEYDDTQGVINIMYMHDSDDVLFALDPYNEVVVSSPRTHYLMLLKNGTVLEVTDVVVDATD
Test: BLI competition on His-pentamer; competitor (antibody 2): 124.4
observation type: Pair-wise inhibition (%)
Entry rule: numbers only, all in %.

Exercise: Using known records, supply Pair-wise inhibition (%) for 1-32 (antibody, V domains shown) VH: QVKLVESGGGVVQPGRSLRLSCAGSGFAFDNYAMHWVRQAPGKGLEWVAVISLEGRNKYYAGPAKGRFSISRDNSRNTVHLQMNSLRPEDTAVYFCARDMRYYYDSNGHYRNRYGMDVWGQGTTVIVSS VL: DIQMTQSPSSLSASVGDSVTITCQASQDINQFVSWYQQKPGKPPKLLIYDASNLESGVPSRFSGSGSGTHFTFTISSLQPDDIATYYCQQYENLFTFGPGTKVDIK
Solution: 7

Exercise: Name the recorded Pair-wise inhibition (%) of the binder listed here: 3-16 (antibody, V domains shown) VH: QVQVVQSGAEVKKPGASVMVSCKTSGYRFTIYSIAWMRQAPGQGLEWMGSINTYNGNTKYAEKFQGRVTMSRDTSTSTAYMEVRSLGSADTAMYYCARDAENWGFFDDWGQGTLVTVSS VL: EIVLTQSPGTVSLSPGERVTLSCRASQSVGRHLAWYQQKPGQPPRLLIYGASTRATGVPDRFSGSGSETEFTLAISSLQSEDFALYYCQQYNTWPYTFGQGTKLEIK
Solution: -1

Exercise: Note Pair-wise inhibition (%) for the binder shown: 1-150 (antibody, V domains shown) VH: QVQLVESGGGLVKPGGSLRLSCAASGFSFSAYYMSWIRQAPGKGLEWISYISSSGNTIYYTDSVKGRFTIARDNAKNSLYLQMNSLRAEDTGLYYCARDSYSKLADIEATEAFDVWGQGTMVAVSS VL: SYELTQPPSVSVAPGKTARITCGGNNIGSKSVHWYQQKPGQAPVMVIYYDSDRPSGIPERFSGSNSGNTATLTISRVEAGDEADYYCQVWDSGSDRVVFGGGTKLTVL
Solution: -22
